- TARGET DESC: CSNK2A1 (Homo sapiens, UniProt P68400)
- Construct: purchased in-house thermal shift (DSF) kinase panel (SGC Frankfurt); Promega NanoBRET for AURKA/B/C
- Sequence (P68400 1-337): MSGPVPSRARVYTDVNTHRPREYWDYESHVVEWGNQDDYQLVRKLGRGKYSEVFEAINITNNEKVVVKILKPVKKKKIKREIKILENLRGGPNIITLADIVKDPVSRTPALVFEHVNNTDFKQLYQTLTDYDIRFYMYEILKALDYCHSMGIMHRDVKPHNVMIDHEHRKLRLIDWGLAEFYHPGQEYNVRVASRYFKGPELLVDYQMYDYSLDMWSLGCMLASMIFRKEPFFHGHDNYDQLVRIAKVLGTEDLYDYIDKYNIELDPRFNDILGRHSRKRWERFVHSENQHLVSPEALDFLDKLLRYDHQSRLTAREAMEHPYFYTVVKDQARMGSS
- EXPERIMENT: Thermal shift assay
- Type: binding
- EXPERIMENTAL SETUP: compound 10 µM; n = 3; read-out: ΔTm CSNK2A1
Parameter ΔTm at 10 µM: see the listing below.
ENDPOINT NAME: ΔTm at 10 µM (°C)

>>> df
                              record_smiles  endpoint_name  units_of_measure  assay_value
0  CCN1CCN(C(=O)Cc2ccc(Nc3ncc(F)c(Nc4ccc(C(=O)O)cc4)n3)cc2)CC1   ΔTm at 10 µM                °C          1.3
1  O=C(Cc1ccc(Nc2ncc(F)c(Nc3ccc(C(=O)Nc4ccccc4Cl)cc3)n2)cc1)NCCN1CCOCC1   ΔTm at 10 µM                °C          1.3
2  CCN1CCN(C(=O)Cc2ccc(Nc3ncc(F)c(Nc4ccc(C(=O)Nc5ccccc5)cc4)n3)cc2)CC1   ΔTm at 10 µM                °C          1.1
3  NC(=O)Cc1ccc(Nc2ncc(F)c(Nc3ccc(C(=O)Nc4ccccc4Cl)cc3)n2)cc1   ΔTm at 10 µM                °C          1.6
